# EXPERIMENTAL SYSTEM: APN/CD13 (Sus scrofa)
# Sequence (P15145 whole entry): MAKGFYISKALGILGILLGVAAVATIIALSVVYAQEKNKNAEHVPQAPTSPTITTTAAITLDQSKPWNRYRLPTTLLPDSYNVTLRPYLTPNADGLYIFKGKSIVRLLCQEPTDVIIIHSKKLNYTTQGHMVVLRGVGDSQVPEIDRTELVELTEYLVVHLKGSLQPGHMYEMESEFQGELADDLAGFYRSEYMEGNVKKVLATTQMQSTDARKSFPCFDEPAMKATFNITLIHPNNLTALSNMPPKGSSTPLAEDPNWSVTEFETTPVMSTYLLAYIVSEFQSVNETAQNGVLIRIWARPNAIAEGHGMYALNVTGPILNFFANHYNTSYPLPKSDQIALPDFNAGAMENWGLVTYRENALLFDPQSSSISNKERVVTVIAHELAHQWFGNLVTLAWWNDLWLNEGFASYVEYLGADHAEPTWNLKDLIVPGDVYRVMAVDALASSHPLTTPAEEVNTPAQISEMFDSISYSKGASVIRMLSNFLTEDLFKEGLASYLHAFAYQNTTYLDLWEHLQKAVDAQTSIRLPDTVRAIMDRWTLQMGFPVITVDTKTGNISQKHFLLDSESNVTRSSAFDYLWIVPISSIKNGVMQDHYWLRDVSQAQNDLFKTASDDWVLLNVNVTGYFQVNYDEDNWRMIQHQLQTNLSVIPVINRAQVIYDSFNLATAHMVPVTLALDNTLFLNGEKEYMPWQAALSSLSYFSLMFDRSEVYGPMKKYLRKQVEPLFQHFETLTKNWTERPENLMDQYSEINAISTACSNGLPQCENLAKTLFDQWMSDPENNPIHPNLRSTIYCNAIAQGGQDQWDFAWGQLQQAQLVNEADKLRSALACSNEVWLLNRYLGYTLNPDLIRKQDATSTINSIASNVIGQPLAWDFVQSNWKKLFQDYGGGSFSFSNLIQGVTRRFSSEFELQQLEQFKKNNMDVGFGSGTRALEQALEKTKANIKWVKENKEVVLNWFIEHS
# PROTOCOL DETAILS: CD13 inhibition assay
# Format: biochemical, porcine
OBSERVATION TYPE: IC50

Q) Which IC50 value is on record for CCCNNC(=O)c1ccc(NC(=O)[C@H](Cc2c[nH]c3ccccc23)NC(=O)c2ccc(OC)cc2)cc1 [Compound 13e] ?
A) > 50 µM
